- tested.target: D(2) dopamine receptor (Homo sapiens, UniProt P14416)
- Sequence (P14416 whole entry): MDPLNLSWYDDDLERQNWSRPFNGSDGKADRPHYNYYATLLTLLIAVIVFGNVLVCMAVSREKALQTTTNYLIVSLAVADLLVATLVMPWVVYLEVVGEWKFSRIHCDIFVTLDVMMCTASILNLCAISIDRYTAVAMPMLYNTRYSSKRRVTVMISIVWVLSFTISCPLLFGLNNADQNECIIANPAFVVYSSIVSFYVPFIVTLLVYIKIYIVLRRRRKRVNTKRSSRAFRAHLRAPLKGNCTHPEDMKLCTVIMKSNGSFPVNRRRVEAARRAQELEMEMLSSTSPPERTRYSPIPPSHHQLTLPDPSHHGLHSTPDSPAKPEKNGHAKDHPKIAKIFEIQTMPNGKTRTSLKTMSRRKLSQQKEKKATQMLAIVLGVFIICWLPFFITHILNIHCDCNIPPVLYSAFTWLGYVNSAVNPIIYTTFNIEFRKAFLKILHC
- procedure.text: biochemical
- Format: cell-based
- Description: Displacement of [3H]spiperone from human D2SR expressed in CHO cell membranes
pKi: −log10 of the molar value.
The recorded pKi of each item maps onto one of these classes: low range: < 6; mid range: ≥ 6 and < 8; high range: ≥ 8

In [3]: df
Out[3]:
                              compound  answer_label
0  CCCN1CCCN(c2ccc(O)c3c2OCC(=O)N3)CC1     mid range

GET /class?item= O=C1COc2c(N3CCCNCC3)ccc(O)c2N1
low range

Lab note: sort CN1CCN(c2ccc(O)c3c2OCC(=O)N3)CC1 into the matching pKi band.
mid range

----------
- tested.target: D(1A) dopamine receptor (Homo sapiens)
- Sequence (P21728 whole entry): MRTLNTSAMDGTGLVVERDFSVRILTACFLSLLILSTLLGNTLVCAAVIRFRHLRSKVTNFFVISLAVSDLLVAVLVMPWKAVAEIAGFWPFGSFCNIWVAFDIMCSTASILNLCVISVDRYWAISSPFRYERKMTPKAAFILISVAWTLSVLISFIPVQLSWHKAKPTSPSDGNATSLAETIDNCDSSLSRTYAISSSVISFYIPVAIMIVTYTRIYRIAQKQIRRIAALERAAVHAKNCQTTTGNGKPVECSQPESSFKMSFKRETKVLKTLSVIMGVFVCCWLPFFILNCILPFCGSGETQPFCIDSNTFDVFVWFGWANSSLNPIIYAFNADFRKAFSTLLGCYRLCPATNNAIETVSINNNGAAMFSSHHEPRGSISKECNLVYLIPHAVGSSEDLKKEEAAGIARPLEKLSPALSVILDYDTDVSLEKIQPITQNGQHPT
- procedure.text: biochemical
- Description: Displacement of [3H]SCH23390 from human D1R expressed in HEK293T cell membranes
pKi: −log10 of the molar value.
Reported pKi values follow for various compounds

Answered cases to consult:
>>> print(df.to_string())
                                   compound  quantity_kind  reported_measurement
0            O=C1COc2c(N3CCCNCC3)ccc(O)c2N1            pKi                < 4.70
1            CCCN1CCN(c2ccc(O)c3c2OCCO3)CC1            pKi                < 4.82
2         CN1CCCN(c2ccc(O)c3c2OCC(=O)N3)CC1            pKi                < 4.70
3  O=Cc1cnn2ccc(OCCCCN3CCN(c4ccc(O)c5[nH]c(=O)ccc45)CC3)cc12            pKi                < 4.82
4  O=C1COc2c(N3CCN(CCCCOc4ccn5ncc(/C=N/O)c5c4)CC3)ccc(O)c2N1 (stereo in doubt; 9c)            pKi                  5.32
5              CN1CCN(c2ccc(O)c3c2OCCO3)CC1            pKi                  5.11
6  O=Cc1cnn2ccc(OCCCCN3CCN(c4ccc(O)c5c4OCC(=O)N5)CC3)cc12            pKi                  4.92
7  O=Cc1cnn2ccc(OCCCCN3CCN(c4ccc(O)c5c4OCCO5)CC3)cc12            pKi                  4.96

The compound listed as CCCN1CCN(c2ccc(O)c3c2OCC(=O)N3)CC1 has a reported pKi of < 4.70

Measured pKi, O=C1COc2c(N3CCN(CCCCOc4ccn5ncc(/C=N/O)c5c4)CC3)ccc(O)c2N1 (stereo in doubt; 9d) : 5.42

pKi measured on CN1CCN(c2ccc(O)c3[nH]c(=O)ccc23)CC1 = < 4.70

----------
- tested.target: D(2) dopamine receptor (Homo sapiens)
- Assay type: cell-based, HEK293
- Description: Agonist activity at human D2SR expressed in HEK293 cells incubated for 5 hrs by beta-Arrestin 2 recruitment assay
# EC50 listing for each entry below
Field: value (include unit after the number)

>>> print(df.to_string())
                                   molecule  reported_measurement
0  O=c1ccc2c(N3CCN(CCCCOc4ccn5ncc(/C=N/O)c5c4)CC3)ccc(O)c2[nH]1 (stereo in doubt; 9a)                 70 nM
1       CCCN1CCCN(c2ccc(O)c3c2OCC(=O)N3)CC1               1100 nM
2        CCCN1CCN(c2ccc(O)c3c2OCC(=O)N3)CC1                130 nM

Value of measured EC50 for the entry O=Cc1cnn2ccc(OCCCCN3CCN(c4ccc(O)c5[nH]c(=O)ccc45)CC3)cc12 : 51 nM

Value of EC50 reported for the molecule O=Cc1cnn2ccc(OCCCCN3CCN(c4ccc(O)c5c4OCC(=O)N5)CC3)cc12 is 68 nM

----------
- procedure.text: Displacement of [3H]prazosin from […] receptor in porcine cerebral cortex homogenates
- Assay type: tissue-based, Sus scrofa
quantity.kind: pKi
Quick note: pKi values are minus log10 of concentrations in mol/L.

                                   compound  quantity_kind  reported_measurement
0  O/N=C/c1cnn2ccc(OCCCCN3CCN(c4ccc(O)c5c4OCCO5)CC3)cc12 (stereo in doubt; 9e)            pKi                  6.92

Briefly, pKi measured for CCCN1CCCN(c2ccc(O)c3c2OCC(=O)N3)CC1 : 6.05

Summary for this compound, O=c1ccc2c(N3CCN(CCCCOc4ccn5ncc(/C=N/O)c5c4)CC3)ccc(O)c2[nH]1 (stereo in doubt; 9b) : pKi is 7.41

The compound listed as CN1CCN(c2ccc(O)c3c2OCCO3)CC1 has a reported pKi of 5.62

----------
- tested.target: D(2) dopamine receptor (Homo sapiens, UniProt P14416)
- procedure.text: biochemical
- Format: cell-based
- Description: Displacement of [3H]spiperone from human D2LR expressed in CHO cell membranes
pKi: −log10 of the molar value.
Each record gets a class by pKi: low interval (below 5), middle interval (5 to below 7), high interval (7 or more)

>>> df
                    compound     answer_label
0  Oc1ccc(N2CCNCC2)c2c1OCCO2  middle interval

Class (by measured pKi) for O=Cc1cnn2ccc(OCCCCN3CCN(c4ccc(O)c5c4OCC(=O)N5)CC3)cc12
high interval

Classify this compound: CN1CCN(c2ccc(O)c3[nH]c(=O)ccc23)CC1
middle interval

Sort CN1CCN(c2ccc(O)c3c2OCC(=O)N3)CC1 into one of the categories.
middle interval

Class (by measured pKi) for CN1CCN(c2ccc(O)c3c2OCCO3)CC1
middle interval

Each compound maps to one class by pKi. Which class for O=c1ccc2c(N3CCN(CCCCOc4ccn5ncc(/C=N/O)c5c4)CC3)ccc(O)c2[nH]1 (stereo in doubt; 9b) ?
high interval

Exercise: read the entry CCCN1CCN(c2ccc(O)c3c2OCCO3)CC1 and state which class it falls under.
low interval

# bin label for O/N=C/c1cnn2ccc(OCCCCN3CCN(c4ccc(O)c5c4OCCO5)CC3)cc12 (stereo in doubt; 9f)
high interval

Exercise: read the entry O=c1ccc2c(N3CCNCC3)ccc(O)c2[nH]1 and state which class it falls under.
middle interval

For the record O=C1COc2c(N3CCCNCC3)ccc(O)c2N1 , report the class its pKi corresponds to.
low interval

----------
- tested.target: D(1B) dopamine receptor (Homo sapiens, UniProt P21918)
- Sequence (P21918 whole entry): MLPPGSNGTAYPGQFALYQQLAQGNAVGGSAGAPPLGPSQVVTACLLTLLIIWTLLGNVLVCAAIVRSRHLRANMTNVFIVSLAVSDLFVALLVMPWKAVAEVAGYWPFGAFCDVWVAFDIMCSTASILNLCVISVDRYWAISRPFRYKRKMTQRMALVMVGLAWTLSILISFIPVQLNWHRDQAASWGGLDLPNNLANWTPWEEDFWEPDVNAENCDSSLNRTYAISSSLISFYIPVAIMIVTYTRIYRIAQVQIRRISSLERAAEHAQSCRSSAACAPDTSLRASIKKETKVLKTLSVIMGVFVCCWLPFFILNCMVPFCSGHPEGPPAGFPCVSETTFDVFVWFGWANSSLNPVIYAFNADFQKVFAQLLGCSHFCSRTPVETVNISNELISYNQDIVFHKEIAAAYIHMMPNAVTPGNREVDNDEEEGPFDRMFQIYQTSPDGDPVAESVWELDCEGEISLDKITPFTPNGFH
- condition.label: hek-293t
- Description: Displacement of [3H]SCH23390 from human D5R expressed in HEK293T cell membranes
Ki values for the compounds below.

In [3]: df
Out[3]:
                                   compound                             tested_target  reported_measurement
0  O=c1ccc2c(N3CCN(CCCCOc4ccn5ncc(/C=N/O)c5c4)CC3)ccc(O)c2[nH]1 (stereo in doubt; 9b)  D(1B) dopamine receptor (Homo sapiens, UniProt P21918)               > 20 µM

# evaluate next
# Ki of O/N=C/c1cnn2ccc(OCCCCN3CCN(c4ccc(O)c5c4OCCO5)CC3)cc12 (stereo in doubt; 9f) = > 20 µM

----------
// Ki lookup, one value per entry
- tested.target: D(4) dopamine receptor (Homo sapiens)
- Sequence (P21917 whole entry): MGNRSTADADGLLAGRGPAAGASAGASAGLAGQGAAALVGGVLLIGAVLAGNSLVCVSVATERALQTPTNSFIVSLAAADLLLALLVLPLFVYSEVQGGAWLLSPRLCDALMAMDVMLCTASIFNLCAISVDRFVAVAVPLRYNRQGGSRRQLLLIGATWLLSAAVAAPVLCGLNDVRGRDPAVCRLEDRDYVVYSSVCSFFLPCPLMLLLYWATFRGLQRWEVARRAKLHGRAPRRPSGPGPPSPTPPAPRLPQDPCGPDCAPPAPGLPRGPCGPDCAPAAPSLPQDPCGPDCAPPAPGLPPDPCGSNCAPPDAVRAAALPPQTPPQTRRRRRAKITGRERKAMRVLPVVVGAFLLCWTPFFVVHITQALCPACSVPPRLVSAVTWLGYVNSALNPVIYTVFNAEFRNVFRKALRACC
Provide only the numeric value, understood in nM.

>>> print(df.to_string())
                                   molecule  reported_measurement
0          O=c1ccc2c(N3CCNCC3)ccc(O)c2[nH]1                  6100
1  O=Cc1cnn2ccc(OCCCCN3CCN(c4ccc(O)c5c4OCC(=O)N5)CC3)cc12                    10
2              CN1CCN(c2ccc(O)c3c2OCCO3)CC1                  2600
3          CN1CCN(c2ccc(O)c3c2OCC(=O)N3)CC1                    59
4             O=C1COc2c(N3CCNCC3)ccc(O)c2N1                   440
5  O=c1ccc2c(N3CCN(CCCCOc4ccn5ncc(/C=N/O)c5c4)CC3)ccc(O)c2[nH]1 (stereo in doubt; 9a)                    11

I looked up CN1CCN(c2ccc(O)c3[nH]c(=O)ccc23)CC1 and its Ki for D(4) dopamine receptor (Homo sapiens) was 560

----------
Observed Ki, system 5-hydroxytryptamine receptor 2A (Homo sapiens, UniProt P28223).
Provide the reading as a plain figure in µM.

Known results for compounds:
                                   compound                             tested_target  units  reported_measurement
0              CN1CCN(c2ccc(O)c3c2OCCO3)CC1  5-hydroxytryptamine receptor 2A (Homo sapiens, UniProt P28223)     µM                   2.1
1  O=C1COc2c(N3CCN(CCCCOc4ccn5ncc(/C=N/O)c5c4)CC3)ccc(O)c2N1 (stereo in doubt; 9c)  5-hydroxytryptamine receptor 2A (Homo sapiens, UniProt P28223)     µM                   2.4

Item: O=c1ccc2c(N3CCN(CCCCOc4ccn5ncc(/C=N/O)c5c4)CC3)ccc(O)c2[nH]1 (stereo in doubt; 9b) | System: 5-hydroxytryptamine receptor 2A (Homo sapiens, UniProt P28223) | Ki: 5.4

Test item CCCN1CCCN(c2ccc(O)c3c2OCC(=O)N3)CC1 ; 5-hydroxytryptamine receptor 2A (Homo sapiens, UniProt P28223); reported Ki was 3.7

Reported 5-hydroxytryptamine receptor 2A (Homo sapiens, UniProt P28223) Ki for item Oc1ccc(N2CCNCC2)c2c1OCCO2 was 3.6
